biological target: Met receptor (EGFR/Met chimeric cells, EMR) (Homo sapiens); construct: expressed in transfected cells; the other entry of the earlier key: EGFR (P00533, Epidermal growth factor receptor); assay: Met Autophosphorylation Assay; format: biochemical; settings: protocol P.130
Sequence (P08581 with tags, fused parts or gaps): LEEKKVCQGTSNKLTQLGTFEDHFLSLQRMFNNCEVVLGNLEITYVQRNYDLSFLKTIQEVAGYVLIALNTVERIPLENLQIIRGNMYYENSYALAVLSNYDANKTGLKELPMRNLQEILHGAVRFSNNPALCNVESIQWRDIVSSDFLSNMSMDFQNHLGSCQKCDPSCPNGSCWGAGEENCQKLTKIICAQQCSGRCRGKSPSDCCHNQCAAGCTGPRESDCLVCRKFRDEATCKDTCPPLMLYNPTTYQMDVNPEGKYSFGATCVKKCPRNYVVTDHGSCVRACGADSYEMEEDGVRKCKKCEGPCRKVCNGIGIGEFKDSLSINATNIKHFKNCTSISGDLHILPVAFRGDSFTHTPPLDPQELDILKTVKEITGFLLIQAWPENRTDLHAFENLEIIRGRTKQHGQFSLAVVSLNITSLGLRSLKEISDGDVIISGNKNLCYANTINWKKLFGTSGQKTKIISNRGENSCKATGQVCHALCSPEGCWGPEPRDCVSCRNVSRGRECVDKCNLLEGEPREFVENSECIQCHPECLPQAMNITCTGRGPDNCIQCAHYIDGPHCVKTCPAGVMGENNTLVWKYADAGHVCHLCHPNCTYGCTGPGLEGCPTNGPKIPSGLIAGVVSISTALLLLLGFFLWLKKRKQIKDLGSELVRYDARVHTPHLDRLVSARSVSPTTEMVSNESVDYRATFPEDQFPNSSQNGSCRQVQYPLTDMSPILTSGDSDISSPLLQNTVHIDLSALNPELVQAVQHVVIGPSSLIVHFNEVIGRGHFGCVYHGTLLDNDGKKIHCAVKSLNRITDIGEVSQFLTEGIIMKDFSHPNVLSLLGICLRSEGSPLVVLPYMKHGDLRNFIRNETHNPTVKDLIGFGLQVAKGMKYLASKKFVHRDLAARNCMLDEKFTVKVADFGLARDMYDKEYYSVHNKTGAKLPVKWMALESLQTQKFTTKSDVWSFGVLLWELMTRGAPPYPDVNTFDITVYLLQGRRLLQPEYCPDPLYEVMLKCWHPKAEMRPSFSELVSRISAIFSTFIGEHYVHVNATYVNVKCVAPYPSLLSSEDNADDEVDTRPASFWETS
Label MET when Met Kinase % Inhibition (P.130) is strictly below 30%; at or above that, label NOT MET.

| smiles_repr | assigned_category |
| --- | --- |
| O=C1Nc2ccc(CCCl)cc2C1=Cc1ccnc2ccccc12 | NOT MET |
| O=C1Nc2ccc(S(=O)(=O)Nc3ccc(C(F)(F)F)cc3)cc2C1=Cc1cc(O)ccc1[N+](=O)[O-] | NOT MET |
| O=C1Nc2ccc(S(=O)(=O)N3CCOCC3)cc2C1=Cc1cc(O)cc(O)c1 | NOT MET |
| O=C1Nc2ccc(S(=O)(=O)N3CCOCC3)cc2C1=Cc1cccc(OCc2ccccc2)c1 | NOT MET |
| CC(C)(C)c1ccc(Oc2cccc(C=C3C(=O)Nc4c(Br)cc(Br)cc43)c2)cc1 | MET |
| CCc1ccc(C=C2C(=O)Nc3ccc(CCCl)cc32)cc1 | MET |
| COc1ccc(Oc2cccc(C=C3C(=O)Nc4ccc(S(=O)(=O)N5CCOCC5)cc43)c2)cc1 | MET |
| CNS(=O)(=O)c1ccc2c(c1)C(=Cc1cc(Br)cs1)C(=O)N2 | MET |
| Cc1c(Br)ccc2c1C(=Cc1cc(Br)cs1)C(=O)N2 | MET |
| O=C1Nc2ccc(S(=O)(=O)N3CCOCC3)cc2C1=Cc1cccc(Oc2cccc(C(F)(F)F)c2)c1 | NOT MET |
| Cc1[nH]c2ccccc2c1C=C1C(=O)Nc2c(Br)cc(Br)cc21 | NOT MET |
| O=C1Nc2c(Br)cc(Br)cc2C1=Cc1cccc(Oc2ccc(Cl)c(Cl)c2)c1 | MET |
| O=C1Nc2ccc(S(=O)(=O)Nc3ccc(C(F)(F)F)cc3)cc2C1=Cc1ccc(OCc2ccccc2)cc1 | MET |
| Cc1c(Br)cc(Br)c2c1C(=Cc1ccccc1F)C(=O)N2 | NOT MET |
| O=C1Nc2ccc(S(=O)(=O)Nc3ccc(C(F)(F)F)cc3)cc2C1=Cc1ccc(Oc2ccccc2)cc1 | MET |
| O=C1Nc2ccc(S(=O)(=O)N3CCOCC3)cc2C1=Cc1ccsc1 | NOT MET |
| O=C1Nc2ccc(CCCl)cc2C1=Cc1ccc2ccccc2n1 | MET |

---

test system: FLK-1 receptor; experiment: FLK-1 Assay (cellular/catalytic ELISA, VEGF-stimulated phosphotyrosine); assay type: cell-based; design: concentration or dose not given beside the values; conditions: protocol P.110

| smiles_repr | Flk Kinase % Inhibition (P.110) [%] |
| --- | --- |
| Cc1c(Br)cc(Br)c2c1C(=Cc1ccccc1F)C(=O)N2 | 15.8 |
| Cc1ccc(C)c(C=C2C(=O)Nc3c(Br)cc(Br)cc32)c1 | 3.4 |
| O=C1Nc2ccc(S(=O)(=O)N3CCOCC3)cc2C1=Cc1ccc(CO)o1 | 11.9 |
| CNS(=O)(=O)c1ccc2c(c1)C(=Cc1cc(Br)cs1)C(=O)N2 | 1.5 |
| O=C1Nc2ccc(S(=O)(=O)N3CCOCC3)cc2C1=Cc1ccsc1 | −13.5 |
| Cc1ccc(C)c(C=C2C(=O)Nc3c(Br)cc(Br)c(C)c32)c1 | 15.5 |
| Cc1ccc(C)c(C=C2C(=O)Nc3ccc(I)cc32)c1 | 10.5 |
| O=C1Nc2ccc(I)cc2C1=Cc1cc(O)c(O)c(O)c1 | 1.1 |
| CNS(=O)(=O)c1ccc2c(c1)C(=Cc1ccc(C(C)C)cc1)C(=O)N2 | 15.4 |

---

Measured Flk Kinase % Inhibition (P.110) by item
test system: FLK-1 receptor; assay: FLK-1 Assay (cellular/catalytic ELISA, VEGF-stimulated phosphotyrosine); assay type: cell-based; parameters: concentration or dose not given beside the values; settings: protocol P.110
attribute_measured: Flk Kinase % Inhibition (P.110) (%)

| compound | attribute_measured | result_units | data_value |
| --- | --- | --- | --- |
| COc1ccc(C=C2C(=O)Nc3ccc(S(=O)(=O)Nc4ccc(C(F)(F)F)cc4)cc32)cc1C [10739/E02] | Flk Kinase % Inhibition (P.110) | % | 26.7 |
| COC1CCCN1C=C1C(=O)Nc2ccc(I)cc21 (racemic) [10740/B04] | Flk Kinase % Inhibition (P.110) | % | −0.3 |
| Cc1ccc(C=C2C(=O)Nc3ccc(S(=O)(=O)Nc4ccc(C(F)(F)F)cc4)cc32)c(C)c1 [10737/E03] | Flk Kinase % Inhibition (P.110) | % | 17.9 |
| Cc1c(Br)cc(Br)c2c1C(=Cc1ccc(C(C)C)cc1)C(=O)N2 [10738/H10] | Flk Kinase % Inhibition (P.110) | % | 1.7 |
| COc1ccc(C=C2C(=O)Nc3c(Br)cc(Br)cc32)cc1C [10739/A02] | Flk Kinase % Inhibition (P.110) | % | 1.2 |
| CCCCOc1ccc(C=C2C(=O)Nc3ccc(S(=O)(=O)Nc4ccc(C(F)(F)F)cc4)cc32)cc1 [10740/E11] | Flk Kinase % Inhibition (P.110) | % | 17.1 |
| Cc1c(Br)ccc2c1C(=Cc1cccc(Oc3cccc(C(F)(F)F)c3)c1)C(=O)N2 [10737/C11] | Flk Kinase % Inhibition (P.110) | % | 13.3 |
| CNS(=O)(=O)c1ccc2c(c1)C(=Cc1ccc(OC)c(C)c1)C(=O)N2 [10739/D02] | Flk Kinase % Inhibition (P.110) | % | 25.6 |
| Cc1c(Br)ccc2c1C(=Cc1ccsc1)C(=O)N2 [10740/C05] | Flk Kinase % Inhibition (P.110) | % | −19.1 |

---

test system: FLK-1 receptor; assay: FLK-1 Assay (cellular/catalytic ELISA, VEGF-stimulated phosphotyrosine); assay type: cell-based; design: concentration or dose not given beside the values

| molecule | Flk Kinase % Inhibition (P.110), % |
| --- | --- |
| O=C1Nc2c(Br)cc(Br)cc2C1=Cc1cccc(Cl)c1 | −18.2 |
| Cc1c(Br)cc(Br)c2c1C(=Cc1ccc(OCc3ccccc3)c(C(C)(C)C)c1)C(=O)N2 | 22.6 |
| COc1cc(C=C2C(=O)Nc3c(Br)cc(Br)c(C)c32)cc2c1OCO2 | 3.3 |
| COC1CC(C=C2C(=O)Nc3c(Br)cc(Br)c(C)c32)C(OC)O1 (stereo not drawn) | 18.3 |
| Cc1c(Br)cc(Br)c2c1C(=Cc1sccc1Br)C(=O)N2 | −7.6 |
| COc1cccc(C=C2C(=O)Nc3c(Br)cc(Br)c(C)c32)c1O | 6.1 |
| Cc1c(Br)cc(Br)c2c1C(=Cc1ccc(Br)cc1)C(=O)N2 | −8.4 |
| O=C1Nc2ccc(I)cc2C1=Cc1ccc(-c2ccccc2)cc1 | 15.7 |
| COc1cc(OC)c(C=C2C(=O)Nc3c(Br)cc(Br)c(C)c32)c(OC)c1 | 17.8 |

---

Quick reference: Met Kinase % Inhibition (P.130) of the listed items.
biological target: Met receptor (EGFR/Met chimeric cells, EMR) (Homo sapiens); construct: expressed in transfected cells; the other entry of the earlier key: EGFR (P00533, Epidermal growth factor receptor); experiment: Met Autophosphorylation Assay; format: biochemical; conditions: protocol P.130
attribute_measured: Met Kinase % Inhibition (P.130) (%)

| compound | attribute_measured | data_value |
| --- | --- | --- |
| Cc1c(Br)cc(Br)c2c1C(=Cc1cccc(Oc3ccc(C(C)(C)C)cc3)c1)C(=O)N2 | Met Kinase % Inhibition (P.130) | 51.6 |
| COc1ccccc1C=C1C(=O)Nc2ccc(S(=O)(=O)Nc3ccc(C(F)(F)F)cc3)cc21 | Met Kinase % Inhibition (P.130) | 18.0 |
| CC(C)(C)c1ccc(Oc2cccc(C=C3C(=O)Nc4ccc(CCCl)cc43)c2)cc1 | Met Kinase % Inhibition (P.130) | 22.8 |
| O=C1Nc2c(Br)cc(Br)cc2C1=Cc1cccc(OCc2ccccc2)c1 | Met Kinase % Inhibition (P.130) | 37.4 |
| O=C1Nc2ccc(S(=O)(=O)N3CCOCC3)cc2C1=Cc1ccc(OCc2ccccc2)cc1 | Met Kinase % Inhibition (P.130) | 30.4 |
| Cc1ccc(Oc2cccc(C=C3C(=O)Nc4ccc(S(=O)(=O)Nc5ccc(C(F)(F)F)cc5)cc43)c2)cc1 | Met Kinase % Inhibition (P.130) | 3.8 |
| CNS(=O)(=O)c1ccc2c(c1)C(=Cc1ccc(C)cc1C)C(=O)N2 | Met Kinase % Inhibition (P.130) | 38.6 |
| Cc1c(Br)ccc2c1C(=Cc1ccc(OCc3ccccc3)cc1)C(=O)N2 | Met Kinase % Inhibition (P.130) | −3.6 |
| O=C1Nc2ccc(CCCl)cc2C1=Cc1cc(O)c(O)c(O)c1 | Met Kinase % Inhibition (P.130) | 92.6 |
| O=C1Nc2ccc(S(=O)(=O)Nc3ccc(C(F)(F)F)cc3)cc2C1=CC1COc2ccccc2O1 (centres unmarked) | Met Kinase % Inhibition (P.130) | 8.9 |
| COc1ccc(C=C2C(=O)Nc3ccc(CCCl)cc32)cc1F | Met Kinase % Inhibition (P.130) | 50.7 |
| Cc1c(Br)ccc2c1C(=Cc1ccsc1)C(=O)N2 | Met Kinase % Inhibition (P.130) | 66.1 |
| Cc1c(Br)ccc2c1C(=Cc1cccc(Oc3ccc(C(C)(C)C)cc3)c1)C(=O)N2 | Met Kinase % Inhibition (P.130) | 60.0 |
| O=C1Nc2ccc(S(=O)(=O)N3CCOCC3)cc2C1=Cc1ccoc1 | Met Kinase % Inhibition (P.130) | 40.4 |
| CCCCOc1ccc(C=C2C(=O)Nc3c(Br)cc(Br)c(C)c32)cc1 | Met Kinase % Inhibition (P.130) | 17.2 |
| COC1CCCN1C=C1C(=O)Nc2ccc(Br)c(C)c21 (centres unmarked) | Met Kinase % Inhibition (P.130) | −4.9 |
| O=C1Nc2ccc(S(=O)(=O)Nc3ccc(C(F)(F)F)cc3)cc2C1=Cc1cnc2ccccc2c1 | Met Kinase % Inhibition (P.130) | 48.2 |
| O=C1Nc2ccc(I)cc2C1=Cc1cccc(Oc2ccc(Cl)c(Cl)c2)c1 | Met Kinase % Inhibition (P.130) | 74.0 |
| CNS(=O)(=O)c1ccc2c(c1)C(=Cc1ccc(OCc3ccccc3)cc1)C(=O)N2 | Met Kinase % Inhibition (P.130) | 11.1 |
| Cc1ccc(C=C2C(=O)Nc3ccc(S(=O)(=O)Nc4ccc(C(F)(F)F)cc4)cc32)c(C)c1 | Met Kinase % Inhibition (P.130) | 13.4 |
| CCOc1ccc(C=C2C(=O)Nc3ccc(Br)c(C)c32)cc1 | Met Kinase % Inhibition (P.130) | 30.6 |
| CC(C)c1ccc(C=C2C(=O)Nc3c(Br)cc(Br)cc32)cc1 | Met Kinase % Inhibition (P.130) | 35.7 |
| Cc1ccc(Oc2cccc(C=C3C(=O)Nc4ccc(I)cc43)c2)cc1 | Met Kinase % Inhibition (P.130) | 78.7 |
| COC1CCCN1C=C1C(=O)Nc2ccc(S(=O)(=O)N3CCOCC3)cc21 (centres unmarked) | Met Kinase % Inhibition (P.130) | −5.2 |
| O=C1Nc2c(Br)cc(Br)cc2C1=Cc1ccc2ccccc2n1 | Met Kinase % Inhibition (P.130) | 48.5 |
| O=C1Nc2c(Br)cc(Br)cc2C1=Cc1ccc(Cl)c(Cl)c1 | Met Kinase % Inhibition (P.130) | 12.2 |
| O=C1Nc2ccc(S(=O)(=O)Nc3ccc(C(F)(F)F)cc3)cc2C1=Cc1ccc(CO)o1 | Met Kinase % Inhibition (P.130) | 76.9 |
| CNS(=O)(=O)c1ccc2c(c1)C(=Cc1cc(O)ccc1[N+](=O)[O-])C(=O)N2 | Met Kinase % Inhibition (P.130) | 42.4 |
| O=C1Nc2ccc(CCCl)cc2C1=CC1COc2ccccc2O1 (centres unmarked) | Met Kinase % Inhibition (P.130) | 27.7 |
| O=C1Nc2c(Br)cc(Br)cc2C1=CC1COc2ccccc2O1 (centres unmarked) | Met Kinase % Inhibition (P.130) | 36.5 |
| O=C1Nc2ccc(S(=O)(=O)N3CCOCC3)cc2C1=Cc1cc(O)ccc1[N+](=O)[O-] | Met Kinase % Inhibition (P.130) | 33.5 |
| Cc1[nH]c2ccccc2c1C=C1C(=O)Nc2ccc(S(=O)(=O)Nc3ccc(C(F)(F)F)cc3)cc21 | Met Kinase % Inhibition (P.130) | 39.0 |
| Cc1ccc(Oc2cccc(C=C3C(=O)Nc4ccc(Br)c(C)c43)c2)cc1 | Met Kinase % Inhibition (P.130) | 4.3 |
| O=C1Nc2ccc(CCCl)cc2C1=Cc1cccc(Oc2cccc(C(F)(F)F)c2)c1 | Met Kinase % Inhibition (P.130) | 35.1 |
| O=C1Nc2ccc(I)cc2C1=Cc1ccc(OCc2ccccc2)cc1 | Met Kinase % Inhibition (P.130) | 65.1 |
